Recorded values, source PubChem BioAssay AID1963428.

Tested on: 171881-019-R-J1-PDC complex spheroid growth, % test/control
Assay: Anticancer human tumor 171881-019-R-J1-PDC patient-derived invasive breast carcinoma cell line growth inhibition [Asc]
Settings: compound alone; run of 10/03/2022
valueKind: IC50

[ask] # input compound: CNC(C)C(=O)NC1CN(S(=O)(=O)c2cccc(S(=O)(=O)N3CCC4CCC(C(=O)NC(c5ccccc5)c5ccccc5)N4C(=O)C(NC(=O)C(C)NC)C3)c2)CCC2CCC(C(=O)NC(c3ccccc3)c3ccccc3)N2C1=O (stereo unspecified) ; wanted: its IC50
[reply] > 1000 nM

----------
Test system: 171881-019-R-J1-PDC complex spheroid growth, % test/control
Assay: Anticancer human tumor 171881-019-R-J1-PDC cell line growth inhibition [Asc];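 on viability, T/C: spheroids exposed to compounds for 7 days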
Details: second compound 0.3 µM; first compound 0.00316 µM; stronger effect = lower value
Measured viability, T/C of individual entries
Respond with the bare value in %.

[ask] Query the reported viability, T/C for 171881-019-R-J1-PDC complex spheroid growth, % test/control; item: NC1CCC(NC2CC2c2ccccc2)CC1 (stereo unspecified) + CCN1C(C(=O)NC23CCC(C(=O)O)(CC2)CC3)C(c2cccc(Cl)c2F)C2(C(=O)Nc3cc(Cl)ccc32)C12CCCCC2
[reply] 127

[ask] For 171881-019-R-J1-PDC complex spheroid growth, % test/control, provide viability, T/C of CCN1CCN(Cc2ccc(Nc3ncc(F)c(-c4cc(F)c5nc(C)n(C(C)C)c5c4)n3)nc2)CC1 + CCN1C(C(=O)NC23CCC(C(=O)O)(CC2)CC3)C(c2cccc(Cl)c2F)C2(C(=O)Nc3cc(Cl)ccc32)C12CCCCC2 please.
[reply] 109

[ask] Find viability, T/C (171881-019-R-J1-PDC complex spheroid growth, % test/control) for the entry CNC(C)C(=O)NC1CN(S(=O)(=O)c2cccc(S(=O)(=O)N3CCC4CCC(C(=O)NC(c5ccccc5)c5ccccc5)N4C(=O)C(NC(=O)C(C)NC)C3)c2)CCC2CCC(C(=O)NC(c3ccccc3)c3ccccc3)N2C1=O (stereo unspecified) + CCN1C(C(=O)NC23CCC(C(=O)O)(CC2)CC3)C(c2cccc(Cl)c2F)C2(C(=O)Nc3cc(Cl)ccc32)C12CCCCC2
[reply] 113
